test system: BRAF V600E (Homo sapiens, UniProt P15056, V600E)
Sequence (P15056 whole entry V600E): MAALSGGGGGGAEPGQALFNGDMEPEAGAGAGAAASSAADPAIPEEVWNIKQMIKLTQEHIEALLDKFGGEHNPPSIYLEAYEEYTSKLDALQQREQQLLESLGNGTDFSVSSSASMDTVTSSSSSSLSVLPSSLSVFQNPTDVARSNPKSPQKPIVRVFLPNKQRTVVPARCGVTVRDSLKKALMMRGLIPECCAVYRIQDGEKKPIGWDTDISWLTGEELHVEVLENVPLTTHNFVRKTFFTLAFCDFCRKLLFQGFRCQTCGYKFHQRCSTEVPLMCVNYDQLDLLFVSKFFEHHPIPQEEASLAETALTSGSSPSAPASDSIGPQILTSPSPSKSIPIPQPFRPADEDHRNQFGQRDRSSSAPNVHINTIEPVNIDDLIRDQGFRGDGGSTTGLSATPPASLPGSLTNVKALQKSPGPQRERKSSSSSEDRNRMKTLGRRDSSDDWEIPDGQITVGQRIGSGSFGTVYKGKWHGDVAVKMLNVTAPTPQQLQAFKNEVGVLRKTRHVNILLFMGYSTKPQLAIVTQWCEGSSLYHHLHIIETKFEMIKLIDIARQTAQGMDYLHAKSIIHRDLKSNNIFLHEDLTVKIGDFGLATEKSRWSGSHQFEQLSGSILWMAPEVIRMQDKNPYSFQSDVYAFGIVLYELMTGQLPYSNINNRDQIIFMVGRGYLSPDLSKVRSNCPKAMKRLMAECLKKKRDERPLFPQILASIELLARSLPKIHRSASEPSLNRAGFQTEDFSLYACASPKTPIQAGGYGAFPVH
measurement description: HiBiT cellular BRAF^V600E degradation assay
Assay type: cell-based
stated conditions: A375.10 cells, 24 h; residual protein remaining in the cell; read-out: HiBit 24 h Emax
assay endpoint: Emax (%)

- CCN(C)S(=O)(=O)Nc1ccc(F)c(Oc2ccc3ncn(-c4cnc(N5CCN(C(=O)CN6CCC(c7ccc(NC8CCC(=O)NC8=O)cc7F)CC6)CC5)nc4)c(=O)c3c2)c1C#N (stereo not shown) [Example 84]: 9.26
- CCN(C)S(=O)(=O)Nc1ccc(F)c(Oc2ccc3ncc(C4COC5(CCN(C(=O)CN6CCC(c7ccc(NC8CCC(=O)NC8=O)cc7F)CC6)CC5)C4)nc3c2)c1C#N (stereo not shown) [Example 221]: 10.3
- CCN(C)S(=O)(=O)Nc1ccc(F)c(Oc2ccc3ncn(C4COC5(CCN(C(=O)CN6CCC(c7ccc(NC8CCC(=O)NC8=O)cc7F)CC6)CC5)C4)c(=O)c3c2)c1C#N (stereo not shown) [Example 24]: 10.8
- CCN(C)S(=O)(=O)Nc1ccc(F)c(Oc2ccc3ncn(-c4cnc(N5CCN(C(=O)CN6CCC(c7ccc(N[C@H]8CCC(=O)NC8=O)cc7F)CC6)CC5)nc4)c(=O)c3c2)c1F [Example 140]: 12.3

A = CN(C1CC1)S(=O)(=O)Nc1ccc(F)c(Oc2ccc3ncn(-c4cnc(N5CCN(C(=O)CN6CCC(c7ccc(N[C@@H]8CCC(=O)NC8=O)cc7F)CC6)CC5)nc4)c(=O)c3c2)c1C#N [Example 126]
B = CCN(C)S(=O)(=O)Nc1ccc(F)c(Oc2ccc3ncn([C@H]4COC5(CCN(C(=O)C[C@H]6CC[C@@H](c7ccc8c(C9CCC(=O)NC9=O)nn(C)c8c7)CC6)CC5)C4)c(=O)c3c2)c1C#N (single isomer, unassigned) [Example 170]
Please let me know which one, A or B , has a lower measured Emax value. Identify your selection by its label.
A
